Biological target: T1, rat EphB1 (Rat, UniProt P09759 18-540)
T1 construct: extracellular domain; also called EphB1 (Ecto), Rat
T1 sequence (looked up): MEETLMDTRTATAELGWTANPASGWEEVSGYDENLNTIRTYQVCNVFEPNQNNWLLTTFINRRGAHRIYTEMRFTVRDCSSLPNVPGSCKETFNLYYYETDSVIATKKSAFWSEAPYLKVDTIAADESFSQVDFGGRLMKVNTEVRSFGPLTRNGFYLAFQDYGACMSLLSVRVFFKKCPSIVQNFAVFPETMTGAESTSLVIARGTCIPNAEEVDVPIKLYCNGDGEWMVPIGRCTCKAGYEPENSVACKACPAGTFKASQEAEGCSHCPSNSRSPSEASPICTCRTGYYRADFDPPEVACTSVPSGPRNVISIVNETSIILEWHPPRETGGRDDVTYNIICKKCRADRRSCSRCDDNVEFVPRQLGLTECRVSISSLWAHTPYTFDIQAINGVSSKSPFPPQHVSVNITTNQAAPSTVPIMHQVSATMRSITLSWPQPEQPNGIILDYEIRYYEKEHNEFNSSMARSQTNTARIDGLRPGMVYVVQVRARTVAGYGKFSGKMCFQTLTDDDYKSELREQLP
Experiment: FP direct binding, selectivity
pKd: −log10 of the molar value. Numbered stars: 1 amine (or outer) side, 2 acyl side, 3 side chain; on linkers, the order of the positions; unused ones are H or OH. Bridge positions count the residues as written; N and C are the ends. Square brackets hold non-standard residues; d marks the D form. Ends that are not written are not given here. 1Nal = N[C@@H](Cc1cccc2ccccc12)C(=O)O; TBMB = c1c(C[*:1])cc(C[*:3])cc1C[*:2]; Tle = CC(C)(C)[C@H](N)C(=O)O; AF488 = AlexaFluor488 label; Aib = CC(C)(N)C(=O)O; βAla = NCCC(=O)O; Sar = CNCC(=O)O
quantity.kind: pKd

Worked examples follow.
[ask] What measured pKd goes with {AF488-βAla}-[Sar][Sar][Sar][Sar][Sar][Sar][Sar][Sar][Sar][Sar]H[dD]VPCP[1Nal]G[Aib]F[1Nal]CP[Tle]NR[Aib]GC (linker 15-22-29 via TBMB) [Compound 144] ?
[reply] 5.84

[ask] What measured pKd goes with ADVTCPWGPFWCPVNRPGCA (N-terminal Fl-G-Sar5 before the entry; three Cys cyclised on TBMB, bicyclic peptide, fluorescent) [Compound 18] ?
[reply] 5.85

(1) ACPWGPFWCPVNRPGCA (N-terminal Fl-G-Sar5 before the entry; three Cys cyclised on TBMB, bicyclic peptide, fluorescent) [Compound 66]
(2) {AF488-βAla}-[Sar][Sar][Sar][Sar][Sar][Sar][Sar][Sar][Sar][Sar]H[dD]VPCP[1Nal]G[Aib]F[1Nal]CP[Tle]NR[Aib][dD]C (linker 15-22-29 via TBMB) [Compound 145]
[ask] For the two items 1 and 2 , which reports the higher pKd value? To answer, give the label that identifies your chosen option.
[reply] 1
(1: 5.64, 2: 5.27)
